Reported GI50 values are given for each entry in this list.
Test system: MV4-11
Assay: Cell proliferation inhibition (CellTiter-Glo), MV4-11
Format: cell-based
Conditions: Homo sapiens, MV4-11, 72 h, MV4-11 cells
Your answer is read as nM, so omit the unit and give the number.

The compound identified as CC(C)N(C(=O)c1cc(F)ccc1Oc1cncnc1N1CC2(CCN(CC3CC4CCC3CC43COC(=O)N3)CC2)C1)C(C)C (single isomer, unassigned) [Example 51-1b] registered its GI50 at 16.1

Further cases:
Item: CC(C)N(C(=O)c1cc(F)ccc1Oc1nncnc1N1CC2(CCN(CC3CCC4(CC3)COC(=O)N4)CC2)C1)C(C)C (centres unmarked) | GI50: 51.3

For reference, reported GI50 for CC1C[C@]2(CC[C@@H](CN3CCC4(CC3)CN(c3ncnnc3Oc3ccc(F)cc3C(=O)N(C(C)C)C(C)C)C4)CC2)NC1=O (some centres unmarked) stands at 25.5

For reference, reported GI50 for CC(C)N(C(=O)c1cc(F)ccc1Oc1nncnc1N1CC2(CCN(CC3CCC4(CC3)CC3(CC3)C(=O)N4)CC2)C1)C(C)C (single isomer, unassigned) stands at 16.7

So for COCC1(COC)C[C@]2(CC[C@@H](CN3CCC4(CC3)CN(c3ncnnc3Oc3ccc(F)cc3C(=O)N(C(C)C)C(C)C)C4)CC2)NC1=O , the logged GI50 turned out to be 14.2

The measured GI50 associated with COCC1(COC)C[C@]2(CC[C@@H](CN3CCC4(CC3)CN(c3ncncc3Oc3ccc(F)cc3C(=O)N(C(C)C)C(C)C)C4)CC2)NC1=O reads 12.2

The compound listed as CC(C)N(C(=O)c1cc(F)ccc1Oc1nncnc1N1CC2(CCN(C[C@H]3CC[C@]4(CC3)CC(C(C)(C)O)C(=O)N4)CC2)C1)C(C)C (single isomer, unassigned) [Example 59-1a] has a reported GI50 of 9.6

Reported GI50 of CCN(C(=O)c1cc(F)ccc1Oc1nncnc1N1CC2(CCN(C[C@H]3CC[C@]4(CC3)CC(C(C)(C)O)C(=O)N4)CC2)C1)C(C)C (single isomer, unassigned) [Example 58-1a] : 17.7

Entry CCN(C(=O)c1cc(F)ccc1Oc1nncnc1N1CC2(CCN(C[C@H]3CC[C@]4(CC3)CC(COC)(COC)C(=O)N4)CC2)C1)C(C)C , GI50 reported as 13.2

Lab note: measured GI50 of CCN(C(=O)c1cc(F)ccc1Oc1cncnc1N1CC2(CCN(CC3CC4CCC3CC43COC(=O)N3)CC2)C1)C(C)C (single isomer, unassigned) [Example 50-1] was 74.4

Input CC(C)N(C(=O)c1cc(F)ccc1Oc1cncnc1N1CC2(CCN(CC3CC4CCC3CC43CCC(=O)N3)CC2)C1)C(C)C (single isomer, unassigned) . Output GI50: 82.6

====

# half-life at 1 μM listing for each entry below
Experiment: Stability in dog liver microsomes
Assay type: in vitro ADME
Conditions: dog, liver microsomes, pH 7.4, Dog; 0.5 mg/mL microsomal protein, 1.00 μM compound, NADPH; read-out: Half life T1/2, dog liver microsomes
Report the figure in h without appending any unit label.

Reference set, count: 5
// half-life at 1 μM lookup, compound = COC[C@@H]1C[C@]2(CC[C@@H](CN3CCC4(CC3)CN(c3ncnnc3Oc3ccc(F)cc3C(=O)N(C(C)C)C(C)C)C4)CC2)NC1=O , result: 1.64

Quick note, half-life at 1 μM for CCN(C(=O)c1cc(F)ccc1Oc1nncnc1N1CC2(CCN(C[C@H]3CC[C@]4(CC3)C[C@@H](COC)C(=O)N4)CC2)C1)C(C)C landed at 1.5

Lab book: half-life at 1 μM of CC(C)N(C(=O)c1cc(F)ccc1Oc1nncnc1N1CC2(CCN(CC3CCC4(CC3)CN(C)C(=O)N4)CC2)C1)C(C)C (single isomer, unassigned) noted as 1.28

Reported half-life at 1 μM of CCN(C(=O)c1cc(F)ccc1Oc1nncnc1N1CC2(CCN(C[C@H]3CC[C@]4(CC3)CC(C)(C)C(=O)N4)CC2)C1)C(C)C : 1.04

Entry [2H]C([2H])([2H])C1C[C@]2(CC[C@@H](CN3CCC4(CC3)CN(c3ncnnc3Oc3ccc(F)cc3C(=O)N(C(C)C)C(C)C)C4)CC2)NC1=O (single isomer, unassigned) ; half-life at 1 μM = 0.59

Further cases:
Sure, the documented half-life at 1 μM for [2H]C([2H])([2H])C1C[C@]2(CC[C@@H](CN3CCC4(CC3)CN(c3ncnnc3Oc3ccc(F)cc3C(=O)N(CC)C(C)C)C4)CC2)NC1=O (single isomer, unassigned) is 1.33

half-life at 1 μM for CCN(C(=O)c1cc(F)ccc1Oc1nncnc1N1CC2(CCN(C[C@H]3CC[C@]4(CC3)CC(C(C)(C)O)C(=O)N4)CC2)C1)C(C)C (single isomer, unassigned) is 1.16
